The values you see were collected from patent US8575145B2.

molecules and their reported IC50
target: GST-tagged recombinant full-length human PIM-2 (Homo sapiens (Human), UniProt Q9P1W9); assay: PIM-2 Enzyme Assay; conditions: read-out: PIM-2 IC50; 4 μM ATP, […] PIM-2
Sequence (Q9P1W9 whole entry): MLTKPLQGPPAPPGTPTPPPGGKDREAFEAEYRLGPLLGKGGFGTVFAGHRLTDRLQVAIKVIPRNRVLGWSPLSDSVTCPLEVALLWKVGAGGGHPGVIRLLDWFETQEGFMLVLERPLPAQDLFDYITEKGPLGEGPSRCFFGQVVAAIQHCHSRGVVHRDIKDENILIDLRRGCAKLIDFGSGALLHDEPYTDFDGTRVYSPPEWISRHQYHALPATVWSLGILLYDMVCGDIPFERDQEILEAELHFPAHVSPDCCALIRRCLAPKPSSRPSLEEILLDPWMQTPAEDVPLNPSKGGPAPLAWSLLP
Counter-ions that a name gives are not always drawn.
propertyName: IC50

1. CC(C)(CNCC(F)(F)F)COc1cccc2ccc(-c3nnc4ccccn34)nc12 [Example 136] ... 362 nM
2. CN1CC[C@@H](F)[C@H](Oc2cccc3ccc(-c4nnc5ccccn45)nc23)CC1 (relative stereo) [Example 118] ... 330 nM
3. F[C@@H]1CNCC[C@@H]1Oc1cccc2ccc(-c3nnc4ccc(C5CC5)cn34)nc12 (relative stereo) [Example 80, dihydrochloride] ... 1160 nM
4. Fc1cc(OC2CCNCCC2F)c2nc(-c3nnc4ccccn34)ccc2c1 (single isomer, unassigned) [Example 121] ... 520 nM
5. Fc1cc(OCC2(F)CNC2)c2nc(-c3nnc4ccccn34)ccc2c1 [Example 108, Dihydrochloride] ... 489 nM
6. Fc1cc(O[C@H]2CCNC[C@H]2F)c2nc(-c3nnc4ccccn34)ccc2c1 (relative stereo) [Example 88] ... 502 nM
7. COc1ccc2nnc(-c3ccc4cc(F)cc(OCC5(F)CCNCC5)c4n3)n2c1 [Example 110, dihydrochloride] ... 163 nM
